These data points were gathered from ChEMBL document CHEMBL4354827.

Experiment: Drug level in scopolamine-induced Sprague-Dawley rat plasma at 0.5 mg/kg, po for 7 days
Format: ADME, organism-based
Observable: concentration at 168 h (nM)
Numbers only; they are read as nM.

According to the records, this compound CCC(=O)c1sc(-c2ccc(Cl)cc2)c(C)c1-c1ccc(S(N)(=O)=O)cc1 displays concentration at 168 h of 580

###

# Tmax values compiled below
Test: Tmax in Beagle dog at 10 mg/kg, po after 0.25 to 144 hrs by LC-MS/MS analysis
Assay type: ADME, organism-based, Canis lupus familiaris
Details: in vivo
Numbers only; they are read as h.

{"Cpd smiles": "CCC(=O)c1sc(-c2ccc(Cl)cc2)c(C)c1-c1ccc(S(N)(=O)=O)cc1", "Tmax, h": 1.5}

Kindly review the next compound as well.
According to the records, this compound CCC(=O)c1sc(-c2ccc(OC)cc2)c(C)c1-c1ccc(S(N)(=O)=O)cc1 displays Tmax of 1.17

###

Target: Neuronal acetylcholine receptor subunit alpha-7 (Homo sapiens, UniProt P36544)
Sequence (P36544 whole entry): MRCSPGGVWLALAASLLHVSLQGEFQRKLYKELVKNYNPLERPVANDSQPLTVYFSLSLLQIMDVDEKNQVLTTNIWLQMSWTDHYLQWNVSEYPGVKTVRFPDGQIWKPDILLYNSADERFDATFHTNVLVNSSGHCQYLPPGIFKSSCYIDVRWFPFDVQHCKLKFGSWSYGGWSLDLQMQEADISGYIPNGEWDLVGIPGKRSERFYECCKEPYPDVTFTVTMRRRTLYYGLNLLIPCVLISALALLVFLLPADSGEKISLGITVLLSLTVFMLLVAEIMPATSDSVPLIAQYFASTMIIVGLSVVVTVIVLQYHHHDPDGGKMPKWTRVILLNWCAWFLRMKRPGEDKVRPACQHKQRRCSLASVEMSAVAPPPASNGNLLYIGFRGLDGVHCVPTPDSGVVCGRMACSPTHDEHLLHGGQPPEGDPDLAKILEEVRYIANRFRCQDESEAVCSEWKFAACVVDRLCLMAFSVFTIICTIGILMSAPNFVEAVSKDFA
Assay: Positive allosteric modulatory activity against alpha7 nAChR in human IMR-32 cells assessed as potentiation of PNU-282987-induced Ca2+ […] at 1 uM by FLIPR assay relative to control
Type: cell-based
Observable: fold change (FC)
// response body must contain only the number

{"Cpd smiles": "CCC(=O)c1sc(-c2ccc(C(C)(C)C)cc2)c(C)c1-c1ccc(S(N)(=O)=O)cc1", "Numeric result": 1}

According to the records, this compound CCC(=O)c1sc(-c2ccc(Cl)cc2)c(C)c1-c1ccc(S(N)(=O)=O)cc1 displays fold change (FC) of 22

According to the records, this compound CCC(=O)c1sc(-c2ccc(N(C)C)cc2)c(C)c1-c1ccc(S(N)(=O)=O)cc1 displays fold change (FC) of 19

According to the records, this compound CCC(=O)c1sc(-c2ccoc2)c(C)c1-c1ccc(S(N)(=O)=O)cc1 displays fold change (FC) of 1

According to the records, this compound CCC(=O)c1sc(-c2cccc(Cl)c2)c(C)c1-c1ccc(S(N)(=O)=O)cc1 displays fold change (FC) of 1

According to the records, this compound Cc1c(-c2ccc(Cl)cc2)sc(C(=O)N2CCCCC2)c1-c1ccc(S(N)(=O)=O)cc1 displays fold change (FC) of 1

According to the records, this compound CCC(=O)c1sc(-c2ccc(F)cc2)c(C)c1-c1ccc(S(N)(=O)=O)cc1 displays fold change (FC) of 8.7

According to the records, this compound CCC(=O)c1sc(-c2ccc(C(F)(F)F)cc2)c(C)c1-c1ccc(S(N)(=O)=O)cc1 displays fold change (FC) of 15.3

According to the records, this compound CCC(=O)c1sc(-c2ccncc2)c(C)c1-c1ccc(S(N)(=O)=O)cc1 displays fold change (FC) of 1

###

Assay: AUCt in Wistar rat plasma at 10 mg/kg, po after 1 to 144 hrs by LC-MS/MS analysis
Assay type: ADME, organism-based
Observable: AUC(0-t)
Enter the number, and then the unit.

According to the records, this compound CCC(=O)c1sc(-c2ccc(Cl)cc2)c(C)c1-c1ccc(S(N)(=O)=O)cc1 displays AUC(0-t) of 35 µM·h

###

Test: Cmax in BALB/c mouse at 1 mg/kg, iv after 0.083 to 144 hrs by LC-MS/MS analysis
Assay type: ADME, organism-based
Set-up: dose 1 mg/kg, route intravenous
Settings: in vivo
Observable: Cmax (nM)
Numbers only; they are read as nM.

According to the records, this compound CCC(=O)c1sc(-c2ccc(Cl)cc2)c(C)c1-c1ccc(S(N)(=O)=O)cc1 displays Cmax of 900
